Entry source: ChEMBL document CHEMBL1130167

Recorded Kd by entry
Target: Regulatory protein E2 (Human papillomavirus type 31)
Experiment: Dissociation constant after binding to human papillomavirus E2 DNA-binding domain (DBD) by observing the changes in [15N]-HSQC spectra.
measured-attribute: Kd (µM)

{"columns": ["smiles-repr", "assayed-target", "measured-attribute", "uom", "relation-sign", "experimental-value"],
 "data": [
  ["O=C(O)CCc1ccc(Oc2ccccc2)cc1", "Regulatory protein E2 (Human papillomavirus type 31)", "Kd", "µM", "=", 2300],
  ["O=C(O)c1ccc(-c2ccc(Cl)c(Cl)c2)cc1", "Regulatory protein E2 (Human papillomavirus type 31)", "Kd", "µM", "=", 6600],
  ["CN(C)c1ccc(-c2ccc(C(=O)O)cc2)cc1", "Regulatory protein E2 (Human papillomavirus type 31)", "Kd", "µM", "=", 6800],
  ["Cc1cccc(-c2ccc(C(=O)O)cc2)c1", "Regulatory protein E2 (Human papillomavirus type 31)", "Kd", "µM", "=", 1900],
  ["Nc1cccc(-c2ccc(C(=O)O)cc2)c1", "Regulatory protein E2 (Human papillomavirus type 31)", "Kd", "µM", ">", 10000],
  ["O=C(O)/C=C/C=C/c1ccc(Oc2ccccc2)cc1", "Regulatory protein E2 (Human papillomavirus type 31)", "Kd", "µM", "=", 350],
  ["O=C(O)c1ccc(-c2cccc([N+](=O)[O-])c2)cc1", "Regulatory protein E2 (Human papillomavirus type 31)", "Kd", "µM", "=", 8900],
  ["O=C(O)c1ccc(-c2cc(Cl)cc(Cl)c2)cc1", "Regulatory protein E2 (Human papillomavirus type 31)", "Kd", "µM", "=", 60],
  ["O=C(O)c1ccc(-c2ccc(Cl)cc2Cl)cc1", "Regulatory protein E2 (Human papillomavirus type 31)", "Kd", "µM", "=", 3500],
  ["COc1ccccc1-c1ccc(C(=O)O)cc1", "Regulatory protein E2 (Human papillomavirus type 31)", "Kd", "µM", "=", 1700],
  ["O=C(O)c1ccc(-c2cccc(Cl)c2)cc1", "Regulatory protein E2 (Human papillomavirus type 31)", "Kd", "µM", "=", 1200]
]}

* * *

Target: Regulatory protein E2 (Human papillomavirus type 31)
Assay: Dissociation constant after binding to human papillomavirus E2 DNA-binding domain (DBD) by observing the changes in [15N]-HSQC spectra.
pKd: −log10 of the molar value.
measured-attribute: pKd

{"columns": ["smiles-repr", "assayed-target", "measured-attribute", "relation-sign", "experimental-value"],
 "data": [
  ["O=C(O)Cc1cccc(Oc2ccccc2)c1", "Regulatory protein E2 (Human papillomavirus type 31)", "pKd", "<", 2.00],
  ["CC(C)(C)c1ccc(-c2ccc(C(=O)O)cc2)cc1", "Regulatory protein E2 (Human papillomavirus type 31)", "pKd", "<", 2.00],
  ["O=C(O)c1ccc(-c2cc(C(F)(F)F)cc(C(F)(F)F)c2)cc1", "Regulatory protein E2 (Human papillomavirus type 31)", "pKd", "<", 2.00],
  ["O=C(O)c1ccc(-c2cccc(C(F)(F)F)c2)cc1", "Regulatory protein E2 (Human papillomavirus type 31)", "pKd", "=", 3.49],
  ["O=C(O)CCCCc1ccc(Oc2ccccc2)cc1", "Regulatory protein E2 (Human papillomavirus type 31)", "pKd", "=", 3.07],
  ["O=C(O)c1ccc(-c2ccc([N+](=O)[O-])c(Cl)c2)cc1", "Regulatory protein E2 (Human papillomavirus type 31)", "pKd", "<", 2.00],
  ["O=C(O)c1ccc(-c2ccc(O)cc2)cc1", "Regulatory protein E2 (Human papillomavirus type 31)", "pKd", "<", 2.00],
  ["O=C(O)c1ccc(-c2cccc(F)c2)cc1", "Regulatory protein E2 (Human papillomavirus type 31)", "pKd", "=", 2.80],
  ["Cc1ccccc1-c1ccc(C(=O)O)cc1", "Regulatory protein E2 (Human papillomavirus type 31)", "pKd", "=", 2.57],
  ["O=C(O)c1ccc(-c2ccc(Oc3ccccc3)cc2)cc1", "Regulatory protein E2 (Human papillomavirus type 31)", "pKd", "=", 2.68],
  ["O=C(O)c1ccc(-c2ccc(C(F)(F)F)cc2)cc1", "Regulatory protein E2 (Human papillomavirus type 31)", "pKd", "=", 2.82],
  ["COc1ccc(-c2ccc(C(=O)O)cc2)cc1", "Regulatory protein E2 (Human papillomavirus type 31)", "pKd", "=", 2.06],
  ["O=C(O)CCCc1ccc(Oc2ccccc2)cc1", "Regulatory protein E2 (Human papillomavirus type 31)", "pKd", "=", 2.72]
]}
